assay: Biodistribution in Jurkat tumor-bearing CB-17 SCID mice; type: in vivo; details: female, CB-17 SCID, mouse, in vivo, iv, total radioactivity, % iD/g Intestine
Non-standard residues stand in square brackets, D forms with d. Residues, ends and D or L forms follow the SMILES beside them. Groups on a side chain read outwards from the residue. *: point of attachment. DOTA = O=C(O)CN1CCN(CC(=O)O)CCN(CC(=O)*)CCN(CC(=O)O)CC1; dTyr(3-I) = N[C@H](Cc1ccc(O)c(I)c1)C(=O)O; 2Nal = N[C@@H](Cc1ccc2ccccc2c1)C(=O)O; dNMeOrn = CN[C@H](CCCN)C(=O)O; 4Amb = NCc1ccc(C(=O)O)cc1; 4Abz = Nc1ccc(C(=O)O)cc1; dDap = NC[C@@H](N)C(=O)O
experimentalReadout: tissue uptake at 1 h (%ID/g)
Answers are plain numbers, in %ID/g.

- compound: "C[C@@H](NC(=O)[C@@H](CCCNC(=N)N)NC(=O)[C@@H](CN)NC(=O)CN1CCN(CC(=O)O)CCN(CC(=O)O)CCN(CC(=O)O)CC1)C(=O)NCc1ccc(C(=O)NCCC[C@@H]2C(=O)N[C@@H](CCCNC(=N)N)C(=O)N[C@@H](Cc3ccc4ccccc4c3)C(=O)NCC(=O)N[C@H](Cc3ccc(O)c(I)c3)C(=O)N2C)cc1 [CXCR4-DOTA-2 [Lu]] (cyclo([dTyr(3-I)][dNMeOrn]([4Amb-dA-dR-dDap-DOTA])R[2Nal]G))"
  tissue uptake at 1 h [%ID/g]: 0.9
- compound: "C[C@@H](NC(=O)[C@@H](CCCNC(=N)N)NC(=O)[C@@H](CN)NC(=O)CN1CCN(CC(=O)O)CCN(CC(=O)O)CCN(CC(=O)O)CC1)C(=O)Nc1ccc(C(=O)NCCC[C@@H]2C(=O)N[C@@H](CCCNC(=N)N)C(=O)N[C@@H](Cc3ccc4ccccc4c3)C(=O)NCC(=O)N[C@H](Cc3ccc(O)c(I)c3)C(=O)N2C)cc1 [CXCR4-DOTA-4 [Lu]] (cyclo([dTyr(3-I)][dNMeOrn]([4Abz-dA-dR-dDap-DOTA])R[2Nal]G))"
  tissue uptake at 1 h [%ID/g]: 0.87
- compound: "CN1C(=O)[C@@H](Cc2ccc(O)cc2)NC(=O)CNC(=O)[C@H](Cc2ccc3ccccc3c2)NC(=O)[C@H](CCCNC(=N)N)NC(=O)[C@H]1CCCNC(=O)c1ccc(CNC(=O)CN2CCN(CC(=O)O)CCN(CC(=O)O)CCN(CC(=O)O)CC2)cc1 [^68Ga-Pentixafor, metal not drawn, reference compound] (cyclo([dY][dNMeOrn]([4Amb-DOTA])R[2Nal]G))"
  tissue uptake at 1 h [%ID/g]: 0.43

Here's the next entry for you.
Q: For the compound C[C@@H](NC(=O)[C@@H](CCCNC(=N)N)NC(=O)[C@@H](CN)NC(=O)CN1CCN(CC(=O)O)CCN(CC(=O)O)CCN(CC(=O)O)CC1)C(=O)NCc1ccc(C(=O)NCCC[C@@H]2C(=O)N[C@@H](CCCNC(=N)N)C(=O)N[C@@H](Cc3ccc4ccccc4c3)C(=O)NCC(=O)N[C@H](Cc3ccc(O)cc3)C(=O)N2C)cc1 [CXCR4-DOTA-1 [Lu]] (cyclo([dY][dNMeOrn]([4Amb-dA-dR-dDap-DOTA])R[2Nal]G)) , what tissue uptake at 1 h is on record?
Result: 0.67
